Attribution: patent US9844540B2

# Tested on: MCF-10A non-transformed human breast epithelial cells
# assay-remarks: Cytotoxicity, SRB assay, MCF-10A
# Assay type: cell-based
# setup-conditions: 48 h, SRB binding assay, read-out: IC50 (concentration that inhibited proliferation by 50%)
readout-label: IC50 (µM)
Reply numerically in µM, unit not repeated.

Record summary for O=C(NCc1ccncc1)C12CC3CC(C1)CC(c1ccc(Cl)cc1)(C3)C2 : reported IC50 = 21

###

# Tested on: Hep-G2 (liver)
# assay-remarks: Tumor cell line panel, sulforhodamine B, Hep-G2
# Assay type: cell-based
# setup-conditions: Homo sapiens, HepG2, 48 hours, mean ± sd
readout-label: pIC50
Interpret pIC50 as the negative base-10 log of the concentration measured in mol/L.

Record summary for O=C(NCc1ccncc1)C12CC3CC(C1)CC(c1ccc(Cl)cc1)(C3)C2 : reported pIC50 = 5.22
